Molecular target: human JAK3 (Homo sapiens)
Construct: His (N); purchased Carna Bioscience Inc. (Kobe, Japan); host or cells: baculovirus expression system
Sequence (P52333 796-1124): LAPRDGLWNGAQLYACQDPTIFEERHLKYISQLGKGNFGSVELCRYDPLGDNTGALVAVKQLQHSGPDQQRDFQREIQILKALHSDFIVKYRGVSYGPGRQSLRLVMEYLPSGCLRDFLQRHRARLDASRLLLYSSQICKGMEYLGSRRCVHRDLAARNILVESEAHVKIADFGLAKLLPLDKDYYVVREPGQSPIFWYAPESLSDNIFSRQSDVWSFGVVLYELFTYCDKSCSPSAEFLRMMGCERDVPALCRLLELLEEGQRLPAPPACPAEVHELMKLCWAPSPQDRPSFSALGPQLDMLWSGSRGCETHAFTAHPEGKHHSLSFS
Test: Determination of Janus Kinase 3 (JAK3) inhibitory activity
Assay type: biochemical
Conditions: test compound 10^−8M; read-out: IR (JAK3 inhibition rate)
Measurement kind: inhibition at 0.01 µM

Compound | Result
CC1CCN(c2ccc(C#N)nn2)CC1n1c(=O)[nH]c2cnc3[nH]ccc3c21 (centres unmarked) [Example 244] | > 50%

Query :: Reported inhibition at 0.01 µM for C[C@@H]1CCCC[C@@H]1n1c(=O)[nH]c2cnc3[nH]cc(Br)c3c21 [Example 324] : what is it?
Result :: > 50%

Query :: Give its inhibition at 0.01 µM value. Item: N#Cc1ccc(N2CCC(Nc3c(C(N)=O)cnc4[nH]ccc34)CC2)nc1 [Example 17]
Result :: > 50%

Query :: Dear colleague, I am looking for the recorded inhibition at 0.01 µM of the following compound: CC(C)[C@@H](C)Nc1c(C(N)=O)cnc2[nH]ccc12 [Example 18]
Result :: > 50%

Query :: Give the measured inhibition at 0.01 µM of C[C@@H]1CCN(c2ccc(C#N)cn2)C[C@@H]1n1c(=O)[nH]c2cnc3[nH]ccc3c21 (relative stereo) [Example 323] .
Result :: > 50%
